- SYSTEM UNDER TEST: MRPL17 (UniProt Q9NRX2)
- PROTOCOL NOTES: Kd (EC50 corrected by depletion factor)
OBSERVABLE: pKd
Remember the convention: pKd equals -log10 of concentration in molar.

Look at this sequence and give its reported pKd. CUGUCCU
7.69

---

The reader will find reported Kd values listed item by item below.
- SYSTEM UNDER TEST: LSM3 (UniProt P62310)
- Sequence (P62310 whole entry): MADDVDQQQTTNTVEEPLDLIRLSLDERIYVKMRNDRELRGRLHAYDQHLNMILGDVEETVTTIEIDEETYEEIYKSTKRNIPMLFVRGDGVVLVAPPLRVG
- PROTOCOL NOTES: Kd (EC50 corrected by depletion factor)
Report as a plain number; the unit nM is understood.

1. UAUUUAU 307

Shifting focus to the sequence that follows.
Which Kd is reported for this sequence? AAUAAA
45

---

- SYSTEM UNDER TEST: HNRNPUL1 (UniProt Q9BUJ2)
- Sequence: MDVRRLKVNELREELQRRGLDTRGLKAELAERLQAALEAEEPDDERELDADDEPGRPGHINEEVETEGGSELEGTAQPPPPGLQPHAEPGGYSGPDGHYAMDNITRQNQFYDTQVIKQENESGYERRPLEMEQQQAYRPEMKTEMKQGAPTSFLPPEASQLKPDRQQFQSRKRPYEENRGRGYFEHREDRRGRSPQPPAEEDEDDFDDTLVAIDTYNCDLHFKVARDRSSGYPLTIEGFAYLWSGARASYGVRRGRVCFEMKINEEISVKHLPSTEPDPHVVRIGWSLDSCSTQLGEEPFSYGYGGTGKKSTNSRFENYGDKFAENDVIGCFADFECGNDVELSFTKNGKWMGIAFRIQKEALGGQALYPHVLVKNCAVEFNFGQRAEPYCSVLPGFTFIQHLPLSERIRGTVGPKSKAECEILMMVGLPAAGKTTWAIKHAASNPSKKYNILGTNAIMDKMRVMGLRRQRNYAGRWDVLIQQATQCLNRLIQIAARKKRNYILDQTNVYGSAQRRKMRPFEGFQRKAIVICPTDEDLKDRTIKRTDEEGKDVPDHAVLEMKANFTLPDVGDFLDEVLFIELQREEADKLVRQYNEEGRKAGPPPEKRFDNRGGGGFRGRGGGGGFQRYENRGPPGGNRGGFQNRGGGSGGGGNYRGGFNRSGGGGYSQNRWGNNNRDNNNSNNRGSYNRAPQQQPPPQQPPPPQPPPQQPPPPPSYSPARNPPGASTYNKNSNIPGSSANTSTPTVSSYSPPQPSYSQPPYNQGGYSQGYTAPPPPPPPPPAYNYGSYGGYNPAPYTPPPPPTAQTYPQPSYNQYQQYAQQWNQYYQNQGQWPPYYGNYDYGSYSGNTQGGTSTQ
- PROTOCOL NOTES: EC50 of free RNA motif oligo competing protein binding to immobilised probe
OBSERVABLE: EC50 (nM)
// units = nM; emit number, no label

1) AAUAAA 1410
2) UAUUUAU 643

Switching to the query record.
Quick one: EC50 of CUGUCCU ?
152

---

- SYSTEM UNDER TEST: MRPL49 (UniProt Q13405)
- PROTOCOL NOTES: EC50 of free RNA motif oligo competing protein binding to immobilised probe
OBSERVABLE: pEC50
Formally, pEC50 is defined as -log10 of the concentration c, with c in mol/L.

Requested read-out: pEC50. Entry: CUGUCCU
6.96

---

- SYSTEM UNDER TEST: MEX3C (UniProt Q5U5Q3)
- Sequence: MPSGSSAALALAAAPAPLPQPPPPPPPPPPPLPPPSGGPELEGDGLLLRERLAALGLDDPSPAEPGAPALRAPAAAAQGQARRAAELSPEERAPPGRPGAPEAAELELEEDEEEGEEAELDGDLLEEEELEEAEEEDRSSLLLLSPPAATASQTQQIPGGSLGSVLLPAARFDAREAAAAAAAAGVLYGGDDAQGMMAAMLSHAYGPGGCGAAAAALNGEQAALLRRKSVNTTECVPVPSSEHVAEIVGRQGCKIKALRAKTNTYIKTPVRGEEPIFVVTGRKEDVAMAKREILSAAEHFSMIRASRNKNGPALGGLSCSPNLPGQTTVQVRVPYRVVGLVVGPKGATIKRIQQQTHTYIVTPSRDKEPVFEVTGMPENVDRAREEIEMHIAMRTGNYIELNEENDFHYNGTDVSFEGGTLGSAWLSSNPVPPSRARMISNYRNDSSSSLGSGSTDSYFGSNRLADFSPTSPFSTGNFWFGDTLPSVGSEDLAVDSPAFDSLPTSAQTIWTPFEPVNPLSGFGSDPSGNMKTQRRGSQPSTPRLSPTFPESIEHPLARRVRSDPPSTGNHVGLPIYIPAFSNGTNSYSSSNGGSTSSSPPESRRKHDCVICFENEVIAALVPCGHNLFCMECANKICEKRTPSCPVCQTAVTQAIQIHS
- PROTOCOL NOTES: EC50 of free RNA motif oligo competing protein binding to immobilised probe
OBSERVABLE: pEC50
Worth noting: pEC50 values are minus log10 of concentrations stated in mol/L.

Please look up its pEC50: UAUUUAU
6.10

The values you see were collected from the supplement of paper PMC6379048.
